Target: T1, Human soluble IL6-R (human, UniProt P08887 20-358)
T1 construct: Bought soluble receptor; biotinylated in some Alphascreen assays; also called sIL6-R; hIL-6R
T1 sequence (looked up): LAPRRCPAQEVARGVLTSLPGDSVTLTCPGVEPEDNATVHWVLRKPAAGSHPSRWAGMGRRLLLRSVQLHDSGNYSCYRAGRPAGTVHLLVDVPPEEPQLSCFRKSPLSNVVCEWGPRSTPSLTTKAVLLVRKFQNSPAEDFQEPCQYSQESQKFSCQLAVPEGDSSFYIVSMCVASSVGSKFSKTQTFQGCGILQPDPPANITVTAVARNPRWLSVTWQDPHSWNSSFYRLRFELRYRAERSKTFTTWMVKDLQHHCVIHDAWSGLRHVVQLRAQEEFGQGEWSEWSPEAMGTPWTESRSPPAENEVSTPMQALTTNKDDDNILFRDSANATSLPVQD
Test: SPR (Biacore 3000), IL6-R on CM5 chip
Quick reference for koff among some binders

binder	unit label	comparison symbol	koff
IL6R73 (VHH, Humanized variant of IL6R04) VHH: EVQLVESGGGLVQPGGSLRLSCAASGFTFDDYDIGWFRQAPGKGREGVSGISSSDGNTYYADSVKGRFTISRDNAKNTVYLQMNSLRPEDTAVYYCAAEPPDSSWYLDGSPEFFKYWGQGTLVTVSS	s⁻¹	=	0.000233
IL6R75 (VHH, Humanized variant of IL6R04) VHH: EVQLVESGGGLVQPGGSLRLSCAASGFTFSDYDIGWFRQAPGKGREGVSGISSSDGNTYYADSVKGRFTISRDNAKNTLYLQMNSLRPEDTAVYYCAAEPPDSSWYLDGSPEFFKYWGQGTLVTVSS	s⁻¹	<	0.0001
IL6R85 (VHH, Humanized variant of IL6R13) VHH: EVQLVESGGGLVQPGGSLRLSCAASGFTFDDYGMSWVRQAPGRGLEWVSAISWNGNNTYYTESMKGRFTISRDNAKNTLYLQMNSLRPEDTAVYYCVKGSTAIVGVPPTYPDEYDYWGQGTLVTVSS	s⁻¹	=	0.00206
IL6R74 (VHH, Humanized variant of IL6R04) VHH: EVQLVESGGGLVQPGGSLRLSCAASGFTFDDYDIGWFRQAPGKGREGVSGISSSDGNTYYADSVKGRFTISSDNAKNTLYLQMNSLRPEDTAVYYCAAEPPDSSWYLDGSPEFFKYWGQGTLVTVSS	s⁻¹	=	0.000122
